conditions: acidic group
PARAMETER_MEASURED: pKa
Give bare numbers.

The examples below pair each entry with its known result.
O=C(O)[C@]1(Cl)[C@@H]2CCC[C@@H]21	2.82
CC(C)C(O[C@H]1O[C@@H](C(=O)O)[C@H](O)[C@@H](O)[C@@H]1O)C(C)C	3.89
Nc1nc[nH+]c(O)c1N	3.57

For each listed entry, give its pKa.
1. O=C(O)C1=C(CO)CC1
2. CC(Br)[N+](=O)[O-] (configuration not stated)

Solution:
4.16
7.17

For each listed entry, give its pKa.
1. CC[C@H](C)[C@H]([NH3+])C(=O)O
2. CC(=O)NS(=O)(=O)c1ccc(N)cc1
3. Cn1c(=O)[nH]c2c(ncn2C)c1=O
4. CC(=O)Oc1cccc2cccc(O)c12
5. Oc1ccc2ccccc2[nH+]1
6. Cc1ccc(O)c(=O)cc1
7. C[NH+]1C[C@H](C(=O)O)C[C@@]2(O)c3cccc4[nH]cc(c34)C[C@@H]12
8. CC(=O)[C@@H]1C[C@@H]1C(=O)O

Solution:
2.31
5.35
6.3
9.69
0.31
7.32
3.42
4.19

For each listed entry, give its pKa.
1. CN(C)Cc1cc(CC(C)(C)C)ccc1O
2. O=S(=O)([O-])c1ccc2c(/N=N/c3ccc4[nH]cnc4c3)c(O)c(S(=O)(=O)[O-])cc2c1
3. COc1cccc(NS(=O)(=O)c2ccccc2)c1
4. CC(=O)c1ccc(O)c2ncccc12
5. Sc1cccc2ncccc12
6. CC(C)c1ccc(C(=O)O)cc1

Solution:
1: 11.5; 2: 9.8; 3: 7.95; 4: 7.75; 5: 6.48; 6: 4.31

====

Consider the following compounds; for each one, report its pKa.
conditions: basic group
Answers are plain numbers.

COc1ccc(OC)nn1	1.61
CCCCn1ccnc1	7.14
[O-][n+]1cnc2[nH]cnc2c1NCc1ccccc1	2.66
C/C(=C(\CCO)SSCCC(C)C)N(C=O)Cc1cnc(C)nc1N	5.58
C1CN2CCCN2C1	7.95

For each listed entry, give its pKa.
1. Cc1ccnc([O-])n1
2. COC(=O)[C@H](Cc1c[nH]cn1)NC(C)=O
3. OCc1cccnc1
4. CCCCCCCCN(CCO)CC(C)O (stereo not given)

Solution:
[9.8, 6.3, 5, 8.2]

Exercise: Record request: pKa value, item CN(CC1CO1)CC1CO1 (stereo not given)
Solution: 6.45

====

settings: basic group
Where a SMILES comes first, the peptide text is derived from it.
Think of 8 as a floor: if pKa stands on it or above, it is criterion met; beneath it, criterion not met.

Some solved entries appear below for comparison.
COc1cccc(OC)c1-c1nc2cnccc2[nH]1	criterion not met
Cc1cc(N)cc(C)c1C(=O)NCCN1CCOCC1	criterion not met
Cc1nnc(C)c(C)n1	criterion not met
C[NH+](C)CCCNc1ccnc2cccc([N+](=O)[O-])c12	criterion not met
OCCc1ccncc1	criterion not met

Exercise: Please indicate if the recorded pKa for O=C([O-])[C@@H]1CCCN1C(=O)[C@@H]1CCCN1 (H-Pro-Pro-OH) meets or exceeds 8.
Solution: criterion met

Exercise: Please indicate if the recorded pKa for "CC(C)/N=C/N(C)c1ccc(-c2c[nH]cn2)cc1" meets or exceeds 8.
Solution: criterion met

Exercise: Please indicate if the recorded pKa for "CCOc1ccc2nc3cc([N+](=O)[O-])ccc3c(N)c2c1" meets or exceeds 8.
Solution: criterion not met

Exercise: Please indicate if the recorded pKa for "C1CCN(CCN2CCCC2)C1" meets or exceeds 8.
Solution: criterion met

Exercise: Please indicate if the recorded pKa for "Cc1cc([O-])[nH+]c([S-])n1" meets or exceeds 8.
Solution: criterion not met

Exercise: Please indicate if the recorded pKa for "CSc1nc(N)c2[nH]cnc2n1" meets or exceeds 8.
Solution: criterion not met

Exercise: Please indicate if the recorded pKa for "CCOc1cccc(/N=C/N(C)C)c1" meets or exceeds 8.
Solution: criterion met

Exercise: Please indicate if the recorded pKa for "NNCCc1ccccc1" meets or exceeds 8.
Solution: criterion not met

Exercise: Please indicate if the recorded pKa for "COC(=O)c1ncccn1" meets or exceeds 8.
Solution: criterion not met

Exercise: Please indicate if the recorded pKa for CCCCCN(CCO)CC(O)CC (centres undefined) meets or exceeds 8.
Solution: criterion met
